Measured values drawn from ChEMBL document CHEMBL1131864 for this set.

- Organism: Mus musculus
- MEASUREMENT NOTES: Inhibition of nitric oxide production in LPS-activated mouse macrophages at a concentration of 100 uM
- Type: functional

{"columns": ["COMPOUND", "READOUT UNITS", "inhibition at 100 µM"],
 "data": [
  ["CC(=O)O[C@@H](C[C@@H](C)C1=C2C[C@H](O)C3[C@@]4(C)CCC(=O)C(C)(C)C4CC[C@]3(C)[C@@]2(C)CC1)[C@H]1OC1(C)C (some centres undefined)", "%", 105],
  ["CC(=O)O[C@@H](C[C@@H](C)C1=C2C=CC3[C@@]4(C)CCC(=O)C(C)(C)C4CC[C@]3(C)[C@@]2(C)CC1=O)[C@H]1OC1(C)C (some centres undefined)", "%", 104],
  ["CC(=O)O[C@@H](C[C@@H](C)C1=C2[C@H](O)[C@H](O)C3[C@@]4(C)CCC(=O)C(C)(C)C4CC[C@]3(C)[C@@]2(C)CC1=O)[C@H]1OC1(C)C (some centres undefined)", "%", 104],
  ["CC(C)[C@]12CC[C@](C)(O1)C1CC[C@](C)(S(=O)(=O)O)C1[C@@H]2O (some centres undefined)", "%", 24.7]
]}

---

- Species on record: Mus musculus
- MEASUREMENT NOTES: Inhibition of nitric oxide production in LPS-activated mouse macrophages at a concentration of 1 uM
- Assay type: functional
Measured inhibition at 1 µM values are reported for all entries that follow.

{"columns": ["MOLECULE", "READOUT UNITS", "inhibition at 1 µM"],
 "data": [
  ["CC(=O)O[C@@H](C[C@@H](C)C(=O)CC[C@@]1(C)C(=O)C=CC2[C@@]3(C)CCC(=O)C(C)(C)C3CC[C@@]21C)[C@H]1OC1(C)C (some centres not stated)", "%", 2.9],
  ["C[C@@H]1CC([C@@H](O)C(C)(C)O)OC2C[C@@]3(C)C(=C21)C[C@H](O)C1[C@@]2(C)CCC(=O)C(C)(C)C2CC[C@@]13C (some centres not stated)", "%", 7.5],
  ["CC(C)[C@]12CC[C@](C)(O1)C1CC[C@](C)(S(=O)(=O)O)C1[C@@H]2O (some centres not stated)", "%", 3.3],
  ["COC(=O)C(C)(C)C1CC[C@@]2(C)C3[C@H](CC4=C([C@H](C)C[C@H](OC(C)=O)[C@H]5OC5(C)C)CC[C@@]42C)OC(=O)C[C@@]13C (some centres not stated)", "%", -2.6],
  ["C=C(C)[C@H](O)[C@@H](O)C[C@@H](C)C1=C2C[C@H](O)C3[C@@]4(C)CCC(=O)C(C)(C)C4CC[C@]3(C)[C@@]2(C)CC1 (some centres not stated)", "%", 8.8],
  ["C[C@H](CC(=O)CC(C)(C)O)C1=C2CCC3[C@@]4(C)CCC(=O)C(C)(C)C4CC[C@]3(C)[C@@]2(C)CC1=O (some centres not stated)", "%", -5.1],
  ["CC(=O)O[C@@H](C[C@@H](C)C1=C2C[C@H](O)C3[C@@]4(C)CCC(=O)C(C)(C)C4CC[C@]3(C)[C@@]2(C)CC1=O)[C@H]1OC1(C)C (some centres not stated)", "%", 2.9]
]}

---

Listing: inhibition at 1 µM of selected compounds
- Species on record: Mus musculus
- MEASUREMENT NOTES: Inhibition of nitric oxide production in LPS-activated mouse macrophages at a concentration of 1 uM
- Type: functional

{"columns": ["COMPOUND", "inhibition at 1 µM"],
 "data": [
  ["CC(C)C1=CC2C(CC[C@]2(C)O)[C@@](O)(CO)CC1 (some centres not stated)", "-4.3%"],
  ["O=C(/C=C/c1ccc(O)c(O)c1)OCCc1ccccc1 [CAFFEIC ACID PHENETHYL ESTER]", "-1.9%"],
  ["CC(=O)O[C@@H](C[C@@H](C)C1=C2[C@H](O)[C@H](O)C3[C@@]4(C)CCC(=O)C(C)(C)C4CC[C@]3(C)[C@@]2(C)CC1=O)[C@H]1OC1(C)C (some centres not stated)", "19%"],
  ["C[C@H](C[C@H](O)[C@H](O)C(C)(C)O)C1=C2C[C@H](O)C3[C@@]4(C)CCC(=O)C(C)(C)C4CC[C@]3(C)[C@@]2(C)CC1 (some centres not stated)", "5.8%"],
  ["CC(=O)O[C@@H](C[C@@H](C)C1=C2[C@H](O)[C@H](O)C3[C@@]4(C)CCC(=O)C(C)(C)C4CC[C@]3(C)[C@@]2(C)CC1)[C@H]1OC1(C)C (some centres not stated)", "5.9%"],
  ["CC(=O)O[C@H]1C[C@@H](C)C2=C3C[C@H](O)C4[C@@]5(C)CCC(=O)C(C)(C)C5CC[C@]4(C)[C@@]3(C)C[C@@H]2O[C@H]1C(C)(C)O (some centres not stated)", "-4.5%"],
  ["CC(=O)O[C@@H](C[C@@H](C)C1=C2C[C@H](O)C3[C@@]4(C)CCC(=O)C(C)(C)C4CC[C@]3(C)[C@@]2(C)CC1)[C@H](O)C(C)(C)O (some centres not stated)", "9.2%"]
]}
